procedure_text: Toxicity liver stage against HepG2, at 10uM
Assay type: cell-based
Design: test concentration 10 uM, cell line HepG2-A16-CD81EGFP
experimental_parameters: human, HepG2-A16-CD81EGFP cells; read-out: INHIBITION
cytotoxicity at 10 µM by entry:
recorded_endpoint: cytotoxicity at 10 µM (%)

>>> print(df.to_string())
                                    compound      recorded_endpoint  result_number
 0   Cc1cc(C(=O)Nc2ccc3c(c2)N(C)CCN(C)C3)on1  cytotoxicity at 10 µM           7.34
 1  Fc1cccc(-c2nnn3c2COC(CNCc2ccsc2)C3)c1 (stereo not drawn)  cytotoxicity at 10 µM          -1.52
 2  N#Cc1ccnc(N2CCN(CC(O)c3cccc(F)c3)CC2)c1 (stereo not drawn)  cytotoxicity at 10 µM           3.15
 3        O=C(C1CCC1)N1CCc2onc(Cn3cccn3)c2C1  cytotoxicity at 10 µM          -1.13
 4  Cc1csc(NC(=O)[C@@H]2C[C@H]3[C@H](CCN3S(C)(=O)=O)O2)n1  cytotoxicity at 10 µM           1.64
 5  COCCC(C)NC(=O)N1CCSC(C)(C)C1 (stereo not drawn)  cytotoxicity at 10 µM          -3.94
 6  O=C(c1cnn2c1OCCC2)N1CCN(C/C=C/c2ccccc2)CC1  cytotoxicity at 10 µM           9.28
 7         CN(C)c1cc(CNC(=O)c2ccc(O)nc2)ccn1  cytotoxicity at 10 µM            -16
 8  Cc1cnn(CC2CCCCN2CCCS(N)(=O)=O)c1 (stereo not drawn)  cytotoxicity at 10 µM           4.02
 9  Cc1cc(C)n(CC2CCCN2C(=O)Cc2c(C)nn(C)c2C)n1 (stereo not drawn)  cytotoxicity at 10 µM          -13.8
10          Clc1ccc(C2(CNC3=NCCN3)CCCCC2)cc1  cytotoxicity at 10 µM           38.2
11  CCOCCN1CCN(CC(=O)N2CCC2)CC1CC (stereo not drawn)  cytotoxicity at 10 µM          -2.15
12          Cc1nc2c(cc1C(=O)O)CCN(CC1CC1)CC2  cytotoxicity at 10 µM           -154
13  COc1cccc2c1OCC(NCCCOc1cccnc1)C2 (stereo not drawn)  cytotoxicity at 10 µM           1.52
14  Cc1ccc2nc(-c3nc4c([nH]3)CC(C)(C)CNC4=O)cn2c1  cytotoxicity at 10 µM           5.31
15  Cn1ccc(C(=O)NC2CCC23CCN(Cc2nccs2)CC3)c1 (stereo not drawn)  cytotoxicity at 10 µM           -136
16     CCOc1cc(Cl)ccc1CNC(=O)c1ccc(=O)n(C)c1  cytotoxicity at 10 µM          -4.01
17  Cc1nc(C)n(CC2CN(Cc3cccnc3)Cc3nccn3C2)n1 (stereo not drawn)  cytotoxicity at 10 µM           -141
18  CN(C)CCNC(=O)[C@H]1C[C@H]2CN(C(=O)NC3CCCC3)C[C@@H]1O2  cytotoxicity at 10 µM           -4.2
19  CS(=O)(=O)N1CCC2(CCCN(c3ncc(F)cn3)C2)C1 (stereo not drawn)  cytotoxicity at 10 µM           5.19
20  CSCCC(CO)NC(=O)c1sc(-c2ccccc2Cl)nc1C (stereo not drawn)  cytotoxicity at 10 µM           1.11
21  CCCC(=O)N1CCC2(CC1)CN(Cc1cccc(C)n1)C(=O)CO2  cytotoxicity at 10 µM          -5.05
22  CC(C)CC(C#N)NC(=O)COC1CCCCC1 (stereo not drawn)  cytotoxicity at 10 µM           5.42
23  O=c1cc(-c2cccnc2)nc(-c2ccc(CN3CC[C@@H](O)C3)cc2)[nH]1  cytotoxicity at 10 µM           2.89
24           c1ccc(-c2nc(CNCCn3cccn3)cs2)cc1  cytotoxicity at 10 µM          -1.56
25   O=C(c1ccc2c(c1)CCCC2)N1CCN(c2cnccn2)CC1  cytotoxicity at 10 µM          -1.95
26  CN1CCCC1CNC(=O)CCCOc1ccc(Cl)cc1 (stereo not drawn)  cytotoxicity at 10 µM          -9.33
27       O=C(NCc1ccc(CN2CCCCC2)cc1)Nc1cccnc1  cytotoxicity at 10 µM           74.5
28  CNc1cc(C)nc(NC2CCCN(C3Cc4ccccc4C3)C2)n1 (stereo not drawn)  cytotoxicity at 10 µM          0.403
29         Cc1ccc(CN2CCN(Cc3ccncc3)CC2=O)cc1  cytotoxicity at 10 µM          -5.64
30  CC(O)CC(C)(C)CNC(=O)NCc1cccc(-n2cncn2)c1 (stereo not drawn)  cytotoxicity at 10 µM          -4.79
31   FC(F)(F)CCc1ccnc(NCc2csc(N3CCOCC3)n2)n1  cytotoxicity at 10 µM          -4.13
32  Cc1ccc(CNC(=O)CN2CCOC(Cn3cccn3)C2)s1 (stereo not drawn)  cytotoxicity at 10 µM          -24.1
33       CN(Cc1ccccc1NCc1cccnc1)C(=O)c1cccs1  cytotoxicity at 10 µM          0.205
34                COCCc1nc(CSc2ccncc2)n(C)n1  cytotoxicity at 10 µM          -5.93
35  CCCN1CCN(C(=O)c2ccnc(N)c2)[C@H]2CS(=O)(=O)C[C@H]21  cytotoxicity at 10 µM           2.77
36  CCc1c(C(=O)NC2CCS(=O)(=O)C2)cnn1-c1ccc(F)cc1 (stereo not drawn)  cytotoxicity at 10 µM          -6.31
37  COc1ccc(C(=O)N2CCC(Nc3ccc(C)nn3)CC2)c(F)c1  cytotoxicity at 10 µM           1.15
